Reference source for all entries: ChEMBL document CHEMBL1140481

# TESTED_SYSTEM: Progesterone receptor (Homo sapiens, UniProt P06401)
# Sequence (P06401 whole entry): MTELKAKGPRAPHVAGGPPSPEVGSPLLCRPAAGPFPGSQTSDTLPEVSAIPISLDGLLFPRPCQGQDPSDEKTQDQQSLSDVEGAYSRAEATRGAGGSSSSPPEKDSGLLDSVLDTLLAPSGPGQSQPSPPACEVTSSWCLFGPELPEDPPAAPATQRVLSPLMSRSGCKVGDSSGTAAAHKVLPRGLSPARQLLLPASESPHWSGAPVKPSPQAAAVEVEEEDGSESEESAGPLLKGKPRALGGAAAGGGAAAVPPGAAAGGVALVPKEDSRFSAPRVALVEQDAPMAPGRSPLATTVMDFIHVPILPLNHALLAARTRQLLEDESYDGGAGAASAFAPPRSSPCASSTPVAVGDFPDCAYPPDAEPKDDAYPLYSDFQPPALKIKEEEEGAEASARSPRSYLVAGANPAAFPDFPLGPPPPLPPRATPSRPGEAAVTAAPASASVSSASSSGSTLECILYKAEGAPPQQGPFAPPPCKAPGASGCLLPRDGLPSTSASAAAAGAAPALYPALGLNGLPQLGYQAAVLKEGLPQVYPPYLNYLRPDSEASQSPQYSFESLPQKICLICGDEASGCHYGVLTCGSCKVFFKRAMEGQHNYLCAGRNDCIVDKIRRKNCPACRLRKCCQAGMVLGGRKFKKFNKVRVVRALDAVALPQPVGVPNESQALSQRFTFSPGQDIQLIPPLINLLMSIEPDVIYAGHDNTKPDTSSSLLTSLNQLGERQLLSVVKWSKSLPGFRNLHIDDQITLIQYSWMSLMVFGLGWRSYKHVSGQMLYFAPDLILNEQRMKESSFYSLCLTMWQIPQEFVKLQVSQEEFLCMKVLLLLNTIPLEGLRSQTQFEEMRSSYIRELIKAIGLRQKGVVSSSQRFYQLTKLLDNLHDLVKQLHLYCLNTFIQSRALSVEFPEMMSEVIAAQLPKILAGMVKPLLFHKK
# EXPERIMENTAL_DETAILS: Antagonist activity at progesterone receptor expressed in human T47D cells assessed as inhibition of promegestone-induced alkaline phosphatase activity
# Assay type: functional, cell-based
Measured IC50 accompanies every entry in the list below.
Just the number in pM, nothing appended.

Answered examples (5):
get_value(item= `C=C1OC(C)=N[C@]12CC[C@H]1[C@@H]3CCC4=CC(=O)CCC4=C3[C@@H](c3ccc(C(C)=O)cc3)C[C@@]12C` , readout=IC50) returns 590

get_value(item= `C=C1OC(CC)=N[C@]12CC[C@H]1[C@@H]3CCC4=CC(=O)CCC4=C3[C@@H](c3ccc(N(C)C)cc3)C[C@@]12C` , readout=IC50) returns 980

get_value(item= `C=C1OC(CC)=N[C@]12CC[C@H]1[C@@H]3CCC4=CC(=O)CCC4=C3[C@@H](c3ccc(C(C)=O)cc3)C[C@@]12C` , readout=IC50) returns 340

get_value(item= `C=C1OC(CC)=N[C@]12CC[C@H]1[C@@H]3CCC4=CC(=O)CCC4=C3[C@@H](c3ccc(OC)c(F)c3)C[C@@]12C` , readout=IC50) returns 1000

get_value(item= `C=C1OC=N[C@]12CC[C@H]1[C@@H]3CCC4=CC(=O)CCC4=C3[C@@H](c3ccc(N(C)C)cc3)C[C@@]12C` , readout=IC50) returns 18000

Others:
get_value(item= `C=C1OC(C)=N[C@]12CC[C@H]1[C@@H]3CCC4=CC(=O)CCC4=C3[C@@H](c3ccc(N(C)C)cc3)C[C@@]12C` , readout=IC50) returns 630

get_value(item= `C=C1OC(C)=N[C@]12CC[C@H]1[C@@H]3CCC4=CC(=O)CCC4=C3[C@@H](c3ccc(OC)c(F)c3)C[C@@]12C` , readout=IC50) returns 4600

get_value(item= `C=C1OC=N[C@]12CC[C@H]1[C@@H]3CCC4=CC(=O)CCC4=C3[C@@H](c3ccc(C(C)=O)cc3)C[C@@]12C` , readout=IC50) returns 82000

---

Measured Ratio IC50 accompanies every entry in the list below.
# Species: Homo sapiens
# EXPERIMENTAL_DETAILS: Ratio of IC50 for glucocorticoid receptor to IC50 for progesterone receptor
Lab note: write the figure by itself, no unit.

get_value(item= `C=C1OC(CC)=N[C@]12CC[C@H]1[C@@H]3CCC4=CC(=O)CCC4=C3[C@@H](c3ccc(N(C)C)cc3)C[C@@]12C` , readout=Ratio IC50) returns 24

get_value(item= `C=C1OC(C)=N[C@]12CC[C@H]1[C@@H]3CCC4=CC(=O)CCC4=C3[C@@H](c3ccc(OC)c(F)c3)C[C@@]12C` , readout=Ratio IC50) returns 140

---

# TESTED_SYSTEM: UniProt:P04150
# Sequence (P04150 whole entry): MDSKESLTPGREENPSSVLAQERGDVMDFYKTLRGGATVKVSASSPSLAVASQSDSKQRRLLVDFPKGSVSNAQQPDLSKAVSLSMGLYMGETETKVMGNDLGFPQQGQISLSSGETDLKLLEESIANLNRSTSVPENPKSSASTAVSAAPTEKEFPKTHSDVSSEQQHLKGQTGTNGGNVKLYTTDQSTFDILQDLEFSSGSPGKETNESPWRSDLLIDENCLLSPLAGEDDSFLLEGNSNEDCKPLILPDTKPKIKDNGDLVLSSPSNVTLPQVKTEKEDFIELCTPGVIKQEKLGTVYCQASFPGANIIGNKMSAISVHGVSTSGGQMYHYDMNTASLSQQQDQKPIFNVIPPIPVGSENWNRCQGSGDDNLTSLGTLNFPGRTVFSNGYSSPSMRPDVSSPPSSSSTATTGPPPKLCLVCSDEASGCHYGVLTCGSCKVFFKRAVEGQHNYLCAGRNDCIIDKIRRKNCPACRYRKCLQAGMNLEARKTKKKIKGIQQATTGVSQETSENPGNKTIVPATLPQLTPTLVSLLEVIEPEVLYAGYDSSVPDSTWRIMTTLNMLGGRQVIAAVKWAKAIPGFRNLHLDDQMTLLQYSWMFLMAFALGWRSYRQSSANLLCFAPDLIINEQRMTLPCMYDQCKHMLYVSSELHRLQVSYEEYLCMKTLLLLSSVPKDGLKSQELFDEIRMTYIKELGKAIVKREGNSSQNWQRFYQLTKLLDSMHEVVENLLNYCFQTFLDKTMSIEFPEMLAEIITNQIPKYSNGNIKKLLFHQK
# EXPERIMENTAL_DETAILS: Antagonist activity at glucocorticoid receptor expressed in A549 cells assessed as inhibition of corticoid-induced gene transcription by luciferase reporter gene assay
# Type: functional, cell-based
Measured pIC50 accompanies every entry in the list below.
For clarity, pIC50 is expressed as the negative log10 of concentration in mol/L.

get_value(item= `C=C1OC(C)=N[C@]12CC[C@H]1[C@@H]3CCC4=CC(=O)CCC4=C3[C@@H](c3ccc(N(C)C)cc3)C[C@@]12C` , readout=pIC50) returns 7.09

get_value(item= `C=C1OC(CC)=N[C@]12CC[C@H]1[C@@H]3CCC4=CC(=O)CCC4=C3[C@@H](c3ccc(C(C)=O)cc3)C[C@@]12C` , readout=pIC50) returns 6.68

Others:
get_value(item= `C=C1OC=N[C@]12CC[C@H]1[C@@H]3CCC4=CC(=O)CCC4=C3[C@@H](c3ccc(N(C)C)cc3)C[C@@]12C` , readout=pIC50) returns 6.27
